# Test system: KIT(A829P)
# assay-text: KINOMEscan kinase binding assay
# run-conditions: at 1 μM
Reported values of % Ctrl for individual entries
Numbers only here, please. The scale is %.

entry-smiles: Cc1cc2c([nH]1)/C=C1\C(=O)Nc3c(Cl)cc(cc31)-c1cn(C)nc1COC[C@@H](C)N(C)C2=O
assayed-system: KIT(A829P)
% Ctrl / %: 84
//
entry-smiles: Cc1cc2c([nH]1)/C=C1\C(=O)Nc3ccc(cc31)-c1c(nn(C)c1C)OCCCN(C)C2=O
assayed-system: KIT(A829P)
% Ctrl / %: 93
//
entry-smiles: C[C@@H]1COCc2nn(C)cc2-c2cc(Cl)c3c(c2)/C(=C/c2[nH]ccc2C(=O)N1)C(=O)N3
assayed-system: KIT(A829P)
% Ctrl / %: 92

% Ctrl lookup needed for Cc1cc2c([nH]1)/C=C1\C(=O)Nc3ccc(cc31)-c1c(nn(C)c1C)COCCN(C)C2=O , thanks. 92

What value of % Ctrl has been reported for the following compound? Cc1cc2c([nH]1)/C=C1\C(=O)Nc3c(Cl)cc(cc31)-c1cn(C)nc1COC[C@@H](C)NC2=O 99

---

Let's look at some molecules and their measured % Ctrl.
# Tested on: TRKA
# assay-text: KINOMEscan kinase binding assay
# run-conditions: at 1 μM
Quick reminder: number only, in %, skip the unit.

entry-smiles: Cc1cc2c([nH]1)/C=C1\C(=O)Nc3ccc(cc31)-c1c(nn(C)c1C)COCCN(C)C2=O
readout-number: 20
--
entry-smiles: Cc1cc2c([nH]1)/C=C1\C(=O)Nc3c(Cl)cc(cc31)-c1cn(C)nc1COC[C@@H](C)N(C)C2=O
readout-number: 53
--
entry-smiles: C[C@@H]1COCc2nn(C)cc2-c2cc(Cl)c3c(c2)/C(=C/c2[nH]ccc2C(=O)N1)C(=O)N3
readout-number: 59
--
entry-smiles: Cc1cc2c([nH]1)/C=C1\C(=O)Nc3ccc(cc31)-c1c(nn(C)c1C)OCCCN(C)C2=O
readout-number: 67

Continue with the next molecule.
Item under review: Cc1cc2c([nH]1)/C=C1\C(=O)Nc3c(Cl)cc(cc31)-c1cn(C)nc1COC[C@@H](C)NC2=O . Reported % Ctrl? 61

---

Items are presented alongside their recorded % Ctrl.
# Tested on: CSF1R-autoinhibited
# assay-text: KINOMEscan kinase binding assay
# run-conditions: at 1 μM
Your answer should be a plain number; it is taken to be in %.

entry-smiles: Cc1cc2c([nH]1)/C=C1\C(=O)Nc3ccc(cc31)-c1c(nn(C)c1C)OCCCN(C)C2=O
% Ctrl [%]: 82
--
entry-smiles: Cc1cc2c([nH]1)/C=C1\C(=O)Nc3c(Cl)cc(cc31)-c1cn(C)nc1COC[C@@H](C)N(C)C2=O
% Ctrl [%]: 75
--
entry-smiles: Cc1cc2c([nH]1)/C=C1\C(=O)Nc3c(Cl)cc(cc31)-c1cn(C)nc1COC[C@@H](C)NC2=O
% Ctrl [%]: 71

# lookup: % Ctrl of C[C@@H]1COCc2nn(C)cc2-c2cc(Cl)c3c(c2)/C(=C/c2[nH]ccc2C(=O)N1)C(=O)N3 75

For Cc1cc2c([nH]1)/C=C1\C(=O)Nc3ccc(cc31)-c1c(nn(C)c1C)COCCN(C)C2=O , what is its reported % Ctrl? 100

---

# Test system: TEC
# assay-text: KINOMEscan kinase binding assay
# run-conditions: at 1 μM
measurement-name: % Ctrl (%)
Number in %, nothing else.

Can you look up the measured % Ctrl of C[C@@H]1COCc2nn(C)cc2-c2cc(Cl)c3c(c2)/C(=C/c2[nH]ccc2C(=O)N1)C(=O)N3 for me? 99

---

Listed compounds paired with reported % Ctrl
# System: EGFR(G719C)
# assay-text: KINOMEscan kinase binding assay
# run-conditions: at 1 μM
Give me the value, and tack the unit on after it.

entry-smiles: C[C@@H]1COCc2nn(C)cc2-c2cc(Cl)c3c(c2)/C(=C/c2[nH]ccc2C(=O)N1)C(=O)N3
% Ctrl: 93%
--
entry-smiles: Cc1cc2c([nH]1)/C=C1\C(=O)Nc3ccc(cc31)-c1c(nn(C)c1C)COCCN(C)C2=O
% Ctrl: 80%
--
entry-smiles: Cc1cc2c([nH]1)/C=C1\C(=O)Nc3c(Cl)cc(cc31)-c1cn(C)nc1COC[C@@H](C)NC2=O
% Ctrl: 100%
--
entry-smiles: Cc1cc2c([nH]1)/C=C1\C(=O)Nc3ccc(cc31)-c1c(nn(C)c1C)OCCCN(C)C2=O
% Ctrl: 81%

Recall the recorded % Ctrl for Cc1cc2c([nH]1)/C=C1\C(=O)Nc3c(Cl)cc(cc31)-c1cn(C)nc1COC[C@@H](C)N(C)C2=O with EGFR(G719C) and state it. 100%

---

% Ctrl values for the compounds below.
# Test system: FAK
# assay-text: KINOMEscan kinase binding assay
# run-conditions: at 1 μM
In your response, put the unit directly after the numeric value.

compound: C[C@@H]1COCc2nn(C)cc2-c2cc(Cl)c3c(c2)/C(=C/c2[nH]ccc2C(=O)N1)C(=O)N3 [Cpd. 4]
% Ctrl: 96%
//
compound: Cc1cc2c([nH]1)/C=C1\C(=O)Nc3c(Cl)cc(cc31)-c1cn(C)nc1COC[C@@H](C)NC2=O [Cpd. 3]
% Ctrl: 100%
//
compound: Cc1cc2c([nH]1)/C=C1\C(=O)Nc3ccc(cc31)-c1c(nn(C)c1C)COCCN(C)C2=O [Cpd. 2]
% Ctrl: 96%

Param item = Cc1cc2c([nH]1)/C=C1\C(=O)Nc3ccc(cc31)-c1c(nn(C)c1C)OCCCN(C)C2=O [Cpd. 1] ; retrieve measured % Ctrl. 85%

% Ctrl lookup needed for Cc1cc2c([nH]1)/C=C1\C(=O)Nc3c(Cl)cc(cc31)-c1cn(C)nc1COC[C@@H](C)N(C)C2=O [Cpd. 5] , thanks. 96%

---

# Tested on: ABL1(Q252H)-nonphosphorylated
# assay-text: KINOMEscan kinase binding assay
# run-conditions: at 1 μM
measurement-name: % Ctrl (%)
// units = %; emit number, no label

entry-smiles: Cc1cc2c([nH]1)/C=C1\C(=O)Nc3c(Cl)cc(cc31)-c1cn(C)nc1COC[C@@H](C)NC2=O
assayed-system: ABL1(Q252H)-nonphosphorylated
readout-unit: %
% Ctrl: 92

entry-smiles: C[C@@H]1COCc2nn(C)cc2-c2cc(Cl)c3c(c2)/C(=C/c2[nH]ccc2C(=O)N1)C(=O)N3
assayed-system: ABL1(Q252H)-nonphosphorylated
readout-unit: %
% Ctrl: 86

entry-smiles: Cc1cc2c([nH]1)/C=C1\C(=O)Nc3ccc(cc31)-c1c(nn(C)c1C)OCCCN(C)C2=O
assayed-system: ABL1(Q252H)-nonphosphorylated
readout-unit: %
% Ctrl: 87

entry-smiles: Cc1cc2c([nH]1)/C=C1\C(=O)Nc3c(Cl)cc(cc31)-c1cn(C)nc1COC[C@@H](C)N(C)C2=O
assayed-system: ABL1(Q252H)-nonphosphorylated
readout-unit: %
% Ctrl: 79

We now examine a further molecule.
Endpoint output: % Ctrl of Cc1cc2c([nH]1)/C=C1\C(=O)Nc3ccc(cc31)-c1c(nn(C)c1C)COCCN(C)C2=O . Value? 57

---

# Test system: TRKB
# assay-text: KINOMEscan kinase binding assay
# run-conditions: at 1 μM
measurement-name: % Ctrl (%)
Response body: numeric value in %, unit text excluded.

compound: Cc1cc2c([nH]1)/C=C1\C(=O)Nc3ccc(cc31)-c1c(nn(C)c1C)COCCN(C)C2=O [Cpd. 2]
readout-unit: %
readout-number: 12
--
compound: Cc1cc2c([nH]1)/C=C1\C(=O)Nc3ccc(cc31)-c1c(nn(C)c1C)OCCCN(C)C2=O [Cpd. 1]
readout-unit: %
readout-number: 87

Form: Entry = Cc1cc2c([nH]1)/C=C1\C(=O)Nc3c(Cl)cc(cc31)-c1cn(C)nc1COC[C@@H](C)NC2=O [Cpd. 3] | System = TRKB | % Ctrl = ____ 100

Write down the reported % Ctrl of C[C@@H]1COCc2nn(C)cc2-c2cc(Cl)c3c(c2)/C(=C/c2[nH]ccc2C(=O)N1)C(=O)N3 [Cpd. 4] , test system: TRKB. 100

For TRKB, provide % Ctrl of Cc1cc2c([nH]1)/C=C1\C(=O)Nc3c(Cl)cc(cc31)-c1cn(C)nc1COC[C@@H](C)N(C)C2=O [Cpd. 5] please. 100

---

# Test system: ALK(C1156Y)
# assay-text: KINOMEscan kinase binding assay
# run-conditions: at 1 μM
# Description: Kinase binding assays were performed at Eurofins/DiscoveRx using the general KINOMEscan Protocol (Fabian, M. A. et al., “A small molecule-kinase interaction map for clinical kinase inhibitors,” Nat. Biotechnol. 2005, 23(3):329-36). […] The kinase concentration in the eluates was measured by qPCR. […] Dissociation constants (Kds) for test compound-kinase interactions were calculated by measuring the amount of kinase captured on the solid support as a function of the test compound concentration.
Recorded measurements of % Ctrl, one per entry
Output spec: scalar in %, unitless text.

Recorded % Ctrl, per entry:
entry-smiles: Cc1cc2c([nH]1)/C=C1\C(=O)Nc3c(Cl)cc(cc31)-c1cn(C)nc1COC[C@@H](C)NC2=O
assayed-system: ALK(C1156Y)
readout-unit: %
readout-number: 89
--
entry-smiles: Cc1cc2c([nH]1)/C=C1\C(=O)Nc3c(Cl)cc(cc31)-c1cn(C)nc1COC[C@@H](C)N(C)C2=O
assayed-system: ALK(C1156Y)
readout-unit: %
readout-number: 90

What value of % Ctrl on ALK(C1156Y) does Cc1cc2c([nH]1)/C=C1\C(=O)Nc3ccc(cc31)-c1c(nn(C)c1C)COCCN(C)C2=O have? 93

Checklist item: % Ctrl tested on ALK(C1156Y), entry Cc1cc2c([nH]1)/C=C1\C(=O)Nc3ccc(cc31)-c1c(nn(C)c1C)OCCCN(C)C2=O , value? 100

Test system ALK(C1156Y); read-out % Ctrl; what value for C[C@@H]1COCc2nn(C)cc2-c2cc(Cl)c3c(c2)/C(=C/c2[nH]ccc2C(=O)N1)C(=O)N3 ? 100
